Origin of measurements: BindingDB's records for doi:10.1021/jm00044a013

tested_target: Calpain-1 (Sus scrofa)
assay_remarks: In vitro inhibition of porcine erythrocyte calpain 1.
pKi: −log10 of the molar value.
experimental_readout: pKi

>>> observed_result("CC(C)C[C@H](NC(=O)OCc1ccccc1)C(=O)N[C@H](Cc1ccccc1)C(=O)C(=O)N[C@@H](C)C(=O)O")
6.14
>>> observed_result("COC(=O)[C@H](C)NC(=O)C(=O)[C@@H](Cc1ccccc1)NC(=O)[C@H](CC(C)C)NC(=O)OCc1ccccc1")
7.04
